Data provenance: ChEMBL document CHEMBL1148785

tested on: Plasmodium falciparum; experiment: Inhibition of Plasmodium falciparum protein farnesyltransferase at 0.5 nM by scintillation proximity assay
Entries and their inhibition
Provide only the numeric value, understood in %.

Examples from the recorded data:
compound="Cn1cncc1CN1CC(N(CCCCNC(=O)OC(C)(C)C)S(=O)(=O)c2ccccn2)Cc2cc(C#N)ccc21 (stereo unspecified)" endpoint_unit=% val=24
compound="CCS(=O)(=O)c1ccc(CN(C2Cc3cc(C#N)ccc3N(Cc3cncn3C)C2)S(=O)(=O)c2ncn(C)c2C)cc1 (stereo unspecified)" endpoint_unit=% val=10
compound="COC(=O)N1CCC(CN(C2Cc3cc(C#N)ccc3N(Cc3cncn3C)C2)S(=O)(=O)CS(C)(=O)=O)CC1 (stereo unspecified)" endpoint_unit=% val=0
compound="Cn1cncc1CN1CC(N(CC2CCN(C(=O)N3CCCCC3)CC2)S(=O)(=O)c2ccccn2)Cc2cc(C#N)ccc21 (stereo unspecified)" endpoint_unit=% val=62
compound="CCNC(=O)N1CCC(CN(C2Cc3cc(C#N)ccc3N(Cc3cncn3C)C2)S(=O)(=O)c2ccccn2)CC1 (stereo unspecified)" endpoint_unit=% val=95

INPUT: I'm curious: which inhibition was measured for COC(=O)N1CCC(CN(C2Cc3cc(C#N)ccc3N(Cc3cncn3C)C2)S(=O)(=O)c2cncn2C)CC1 (stereo unspecified) tested on Plasmodium falciparum?
OUTPUT: 72

INPUT: // query: COC(=O)N1CCC(CN(C2Cc3cc(C#N)ccc3N(Cc3cncn3C)C2)S(=O)(=O)c2cc(C)cs2)CC1 (stereo unspecified)
OUTPUT: 25

INPUT: Follow-up entry: Cn1cncc1CN1CC(N(CCc2ccccc2F)S(=O)(=O)c2ccccn2)Cc2cc(C#N)ccc21 (stereo unspecified)
OUTPUT: 22

INPUT: Another compound to check: CCS(=O)(=O)N(CC1CCN(C(=O)OC)CC1)C1Cc2cc(C#N)ccc2N(Cc2cncn2C)C1 (stereo unspecified)
OUTPUT: 0

INPUT: Note, next up: Cn1cncc1CN1CC(N(Cc2ocnc2-c2ccccc2)S(=O)(=O)c2ccccn2)Cc2cc(C#N)ccc21 (stereo unspecified)
OUTPUT: 19

INPUT: Do the same for COC(=O)N1CCC(CN(C2Cc3cc(C#N)ccc3N(Cc3cncn3C)C2)S(=O)(=O)c2ccc(OC)cc2)CC1 (stereo unspecified) please
OUTPUT: 14
